molecular target: BK virus VP1 protein, genotype IV (BK virus); experiment: cell-based or functional assay
experimental-endpoint: EC50, pseudovirus neutralization (nM)
Quick reminder: number only, in nM, skip the unit.

>>> assay_result("1H10 (antibody, V domains shown) VH: QVHLVESGGDLVKPGGSLRLSCVASGFTFSDYYMNWIRMPPGKGLEWISYIDSSAGAIYYADSVKGRFTVSRDDAKNSLFLHMNNLRADDTAVYYCARERRDGHKIFDCWGPGTLVTVSS VL: DIVMTQSPDSLAVSLGERATINCKSSQNILYSSNNKNYLAWYQQKAGQPPKLLIFWSSTRESGVPDRFSGSGSGTDFTLTISSLQAEDVAVYYCQQYYSSPYNFGRGTTLEIK")
0.107

Now take the following binder into account.
Data request: Which EC50, pseudovirus neutralization is reported for this binder? 4F7 (antibody, V domains shown) VH: QVQLVESGGDLVKPGGSLRLSCVASGFTFSDYYMNWIRLPPGKGLEWISYIDSSAGAIYYADSVKGRFTVSRDDAKNSLFLHMNNLRADDTAVYYCARERRDGHKIFDCWGPGTLVTVSS VL: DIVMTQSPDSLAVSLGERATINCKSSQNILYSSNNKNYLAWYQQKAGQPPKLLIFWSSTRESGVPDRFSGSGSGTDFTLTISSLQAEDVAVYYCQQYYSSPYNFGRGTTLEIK
Data returned: 0.0416

Source of measurements: patent US20250304658A1
